# System: Pseudomonas aeruginosa
# protocol.details: Antimicrobial activity against Pseudomonas aeruginosa MTCC 1688 assessed as diameter of growth inhibition zone at 25 ug/ml after 18-24 hr by agar cup diffusion method
# Format: functional
# settings: read-out: DIZ
Kindly state zone of inhibition at 25 µg/mL for each of the entries shown.
# unit: mm | format: bare number

Name the recorded zone of inhibition at 25 µg/mL for O=C(/C=C/c1ccc([N+](=O)[O-])cc1)C1C(=O)NC(=S)NC1=O .
11

Name the recorded zone of inhibition at 25 µg/mL for COc1ccc(/C=C/C(=O)C2C(=O)NC(=S)NC2=O)cc1OC .
11

Name the recorded zone of inhibition at 25 µg/mL for O=C(/C=C/c1ccc2ccccc2c1)C1C(=O)NC(=S)NC1=O .
10

Name the recorded zone of inhibition at 25 µg/mL for O=C(/C=C/c1cccc([N+](=O)[O-])c1)C1C(=O)NC(=S)NC1=O .
14

Name the recorded zone of inhibition at 25 µg/mL for O=C(/C=C/c1ccccc1Cl)C1C(=O)NC(=S)NC1=O .
10

Name the recorded zone of inhibition at 25 µg/mL for O=C(/C=C/c1ccc(O)cc1)C1C(=O)NC(=S)NC1=O .
10

Name the recorded zone of inhibition at 25 µg/mL for Cc1ccc(/C=C/C(=O)C2C(=O)NC(=S)NC2=O)cc1 .
10

Name the recorded zone of inhibition at 25 µg/mL for O=C(/C=C/c1ccccc1O)C1C(=O)NC(=S)NC1=O .
11

Name the recorded zone of inhibition at 25 µg/mL for O=C(/C=C/c1ccc(Cl)cc1)C1C(=O)NC(=S)NC1=O .
11

Name the recorded zone of inhibition at 25 µg/mL for COc1ccc(/C=C/C(=O)C2C(=O)NC(=S)NC2=O)cc1 .
13

Name the recorded zone of inhibition at 25 µg/mL for O=C(/C=C/c1ccccc1)C1C(=O)NC(=S)NC1=O .
10

----------
Kindly state zone of inhibition at 25 µg/mL for each of the entries shown.
# System: Staphylococcus aureus
# protocol.details: Antimicrobial activity against Staphylococcus aureus MTCC 96 assessed as diameter of growth inhibition zone at 25 ug/ml after 18-24 hr by agar cup diffusion method
# Type: functional
# settings: read-out: DIZ
# unit: mm | format: bare number

Name the recorded zone of inhibition at 25 µg/mL for O=C(/C=C/c1ccccc1)C1C(=O)NC(=S)NC1=O .
10

Name the recorded zone of inhibition at 25 µg/mL for COc1ccc(/C=C/C(=O)C2C(=O)NC(=S)NC2=O)cc1 .
13

Name the recorded zone of inhibition at 25 µg/mL for Cc1ccc(/C=C/C(=O)C2C(=O)NC(=S)NC2=O)cc1 .
10

Name the recorded zone of inhibition at 25 µg/mL for O=C(/C=C/c1ccc2ccccc2c1)C1C(=O)NC(=S)NC1=O .
10

Name the recorded zone of inhibition at 25 µg/mL for COc1ccc(/C=C/C(=O)C2C(=O)NC(=S)NC2=O)cc1OC .
11

Name the recorded zone of inhibition at 25 µg/mL for O=C(/C=C/c1ccc(Cl)cc1)C1C(=O)NC(=S)NC1=O .
11
